# MEASURED TARGET: recombinant human ACC1 (rhACC1) (Homo sapiens (Human))
# EXPERIMENT SUMMARY: recombinant hACC1 Transcreener ADP detection FP assay
# Assay type: biochemical
# EXPERIMENTAL SETUP: 50 μM ATP, 120 min at 25° C.
# Protocol: For example direct inhibition of ACC activity, for the compound of Formula (I) was determined using preparations of recombinant human ACC1 (rhACC1) and recombinant human ACC2 (rhACC2). [1] Preparation of rhACC1. […] [2] […] The data was acquired on a Envision Fluorescence reader (PerkinElmer) using a 620 excitation Cy5 FP general dual mirror, 620 excitation Cy5 FP filter, 688 emission (S) and a 688 (P) emission filter.
pIC50: −log10 of the molar value.
MEASURED ATTRIBUTE: pIC50

- MOLECULE: "CC(C)n1ncc2c1C(=O)NC1(CCN(C(=O)c3ccc4[nH]nc(C(N)=O)c4c3)CC1)C2 [Example 27]"
  pIC50: 6.53
- MOLECULE: "Cn1[nH]c2cc(C(=O)N3CCC4(CC3)Cc3cn(C(C)(C)C)nc3C(=O)N4)ccc2c1=O [Example 84]"
  pIC50: 6.71
- MOLECULE: "CC(C)(C)n1cc2c(n1)C(=O)NC1(CCN(C(=O)c3ccc4c(N)n[nH]c4c3)CC1)C2 [Example 65]"
  pIC50: 6.59
- MOLECULE: "COc1cc2ccc(C(=O)N3CCC4(CC3)Cc3cn(C(C)(C)C)nc3C(=O)N4)cc2cn1 [Example 90]"
  pIC50: 6.68
- MOLECULE: "COc1cc(C(=O)N2CCC3(CC2)Cc2cn(C(C)(C)C)nc2C(=O)N3)cc2c(C)n[nH]c12 [Example 87]"
  pIC50: 7.77

[1] CC(C)(C)n1cc2c(n1)C(=O)NC1(CCN(C(=O)c3ccc4[nH]c(N)nc4c3)CC1)C2 [Example 77]
[2] CC(C)n1ncc2c1C(=O)NC1(CCN(C(=O)c3ccc4cnccc4c3)CC1)C2 [Example 22]
[3] CCN(C)c1ccc2ccc(C(=O)N3CCC4(CC3)Cc3cn(C(C)(C)C)nc3C(=O)N4)cc2n1 [Example 108]
[4] CC(C)n1ncc2c1C(=O)NC1(CCN(C(=O)c3ccc4nn(C)cc4c3)CC1)C2 [Example 3]
Incoming: Exam item: list the entries in increasing order of pIC50. In plain terms: list the labels in the order you were asked to.
Outgoing: 4, 2, 1, 3
(4: 5.41, 2: 5.90, 1: 7.10, 3: 7.82)

* * *

# MEASURED TARGET: recombinant human ACC2 (rhACC2) (Homo sapiens (Human), UniProt O00763)
# Sequence (O00763 whole entry V2141I): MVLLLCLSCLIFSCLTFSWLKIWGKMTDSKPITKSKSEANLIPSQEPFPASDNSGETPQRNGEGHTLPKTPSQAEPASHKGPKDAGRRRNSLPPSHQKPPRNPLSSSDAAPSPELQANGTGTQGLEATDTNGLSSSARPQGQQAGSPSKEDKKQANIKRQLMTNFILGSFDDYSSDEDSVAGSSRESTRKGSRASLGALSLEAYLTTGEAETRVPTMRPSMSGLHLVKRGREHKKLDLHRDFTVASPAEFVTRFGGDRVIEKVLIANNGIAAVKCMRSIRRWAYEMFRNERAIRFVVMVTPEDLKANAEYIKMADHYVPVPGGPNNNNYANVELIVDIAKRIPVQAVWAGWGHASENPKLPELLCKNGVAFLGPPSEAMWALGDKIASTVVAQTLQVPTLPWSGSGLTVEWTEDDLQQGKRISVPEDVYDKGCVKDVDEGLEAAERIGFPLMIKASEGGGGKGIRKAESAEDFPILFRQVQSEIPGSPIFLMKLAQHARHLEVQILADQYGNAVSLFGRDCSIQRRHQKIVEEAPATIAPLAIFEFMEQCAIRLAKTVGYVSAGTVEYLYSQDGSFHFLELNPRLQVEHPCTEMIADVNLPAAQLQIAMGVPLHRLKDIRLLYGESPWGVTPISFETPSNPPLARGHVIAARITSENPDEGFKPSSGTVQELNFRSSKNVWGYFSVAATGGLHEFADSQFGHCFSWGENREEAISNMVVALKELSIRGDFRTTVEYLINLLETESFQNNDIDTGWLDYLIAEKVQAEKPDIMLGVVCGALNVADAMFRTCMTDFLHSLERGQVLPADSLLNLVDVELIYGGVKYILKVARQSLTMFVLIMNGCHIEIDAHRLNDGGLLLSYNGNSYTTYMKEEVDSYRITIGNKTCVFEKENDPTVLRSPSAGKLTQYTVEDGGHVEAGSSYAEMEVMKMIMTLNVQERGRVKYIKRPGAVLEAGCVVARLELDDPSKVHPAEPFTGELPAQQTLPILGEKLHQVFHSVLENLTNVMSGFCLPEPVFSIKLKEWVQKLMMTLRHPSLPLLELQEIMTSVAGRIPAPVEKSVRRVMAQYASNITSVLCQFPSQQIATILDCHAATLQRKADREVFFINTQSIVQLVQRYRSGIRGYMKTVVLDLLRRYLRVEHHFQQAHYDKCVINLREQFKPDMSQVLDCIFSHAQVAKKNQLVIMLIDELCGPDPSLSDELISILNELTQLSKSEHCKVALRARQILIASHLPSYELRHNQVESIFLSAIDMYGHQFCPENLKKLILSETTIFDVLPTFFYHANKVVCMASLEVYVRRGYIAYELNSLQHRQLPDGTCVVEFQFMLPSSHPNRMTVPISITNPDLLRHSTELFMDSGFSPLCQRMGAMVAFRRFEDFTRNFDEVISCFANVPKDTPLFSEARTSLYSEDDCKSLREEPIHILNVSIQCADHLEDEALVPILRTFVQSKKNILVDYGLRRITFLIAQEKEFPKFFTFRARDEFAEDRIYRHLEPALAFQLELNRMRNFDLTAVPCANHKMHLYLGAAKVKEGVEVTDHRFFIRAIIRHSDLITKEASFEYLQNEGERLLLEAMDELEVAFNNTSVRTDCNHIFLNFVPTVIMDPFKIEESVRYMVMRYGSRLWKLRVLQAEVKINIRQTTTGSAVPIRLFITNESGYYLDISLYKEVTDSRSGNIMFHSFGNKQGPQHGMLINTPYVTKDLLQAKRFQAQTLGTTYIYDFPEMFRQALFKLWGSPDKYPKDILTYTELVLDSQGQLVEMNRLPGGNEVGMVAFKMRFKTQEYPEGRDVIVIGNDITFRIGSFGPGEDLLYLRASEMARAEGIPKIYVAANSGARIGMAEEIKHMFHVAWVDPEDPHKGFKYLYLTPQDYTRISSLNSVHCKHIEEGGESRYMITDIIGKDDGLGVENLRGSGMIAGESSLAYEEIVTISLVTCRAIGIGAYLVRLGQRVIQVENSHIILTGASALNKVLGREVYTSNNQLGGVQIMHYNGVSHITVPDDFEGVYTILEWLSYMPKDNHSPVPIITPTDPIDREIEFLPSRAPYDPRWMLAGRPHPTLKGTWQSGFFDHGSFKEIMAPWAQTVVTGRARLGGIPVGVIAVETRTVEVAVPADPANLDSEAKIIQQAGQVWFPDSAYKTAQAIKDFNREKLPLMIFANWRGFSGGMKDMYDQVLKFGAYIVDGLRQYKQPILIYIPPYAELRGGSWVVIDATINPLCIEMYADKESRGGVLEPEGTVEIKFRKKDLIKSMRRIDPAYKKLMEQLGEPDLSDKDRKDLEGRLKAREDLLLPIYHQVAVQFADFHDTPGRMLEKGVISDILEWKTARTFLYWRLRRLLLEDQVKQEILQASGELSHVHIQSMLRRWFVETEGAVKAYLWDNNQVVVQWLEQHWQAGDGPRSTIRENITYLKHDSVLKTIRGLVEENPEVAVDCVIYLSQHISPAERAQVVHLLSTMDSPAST
# EXPERIMENT SUMMARY: recombinant hACC2 Transcreener ADP detection FP assay
# EXPERIMENTAL SETUP: 50 uM ATP, 50 min at 25° C.
pIC50: −log10 of the molar value.
MEASURED ATTRIBUTE: pIC50

In the examples that follow, each entry is paired with its recorded pIC50.
- COMPOUND: "CC(C)n1ncc2c1C(=O)NC1(CCN(C(=O)c3cnc4[nH]cc(Cl)c4c3)CC1)C2 [Example 31]"
  pIC50: 7.02
- COMPOUND: "CC(C)(C)n1cc2c(n1)C(=O)NC1(CCN(C(=O)c3ccc4[nH]nc(N)c4c3)CC1)C2 [Example 61]"
  pIC50: 7.89
- COMPOUND: "CC(C)Nc1ccc2ccc(C(=O)N3CCC4(CC3)Cc3cn(C(C)(C)C)nc3C(=O)N4)cc2n1 [Example 107]"
  pIC50: 8.66

[1] CNc1n[nH]c2ccc(C(=O)N3CCC4(CC3)Cc3cn(C(C)(C)C)nc3C(=O)N4)cc12 [Example 93]
[2] CC(C)(C)n1cc2c(n1)C(=O)NC1(CCN(C(=O)c3ccc4ccnc(N)c4c3)CC1)C2 [Example 100]
[3] CC(C)(C)n1cc2c(n1)C(=O)NC1(CCN(C(=O)c3ccc4[nH]nc(C(N)=O)c4c3)CC1)C2 [Example 54]
[4] CNc1n[nH]c2cc(C(=O)N3CCC4(CC3)Cc3cn(C(C)(C)C)nc3C(=O)N4)ccc12 [Example 89]
[5] CC(C)n1ncc2c1C(=O)NC1(CCN(C(=O)c3ccc4cnccc4c3)CC1)C2 [Example 22]
Incoming: Thanks in advance: please rank these 5 entries by pIC50, highest to lowest. Answer format: the labels, ordered as requested.
Outgoing: 3, 1, 2, 4, 5
(3: 8.29, 1: 8.07, 2: 7.68, 4: 7.36, 5: 6.07)

[a] COCCNc1nccc2ccc(C(=O)N3CCC4(CC3)Cc3cn(C(C)(C)C)nc3C(=O)N4)cc12 [Example 120]
[b] CC(C)(C)n1cc2c(n1)C(=O)NC1(CCN(C(=O)c3ccc4cnc(N)cc4c3)CC1)C2 [Example 59]
[c] Cc1n[nH]c2ccc(C(=O)N3CCC4(CC3)Cc3cnn(C(C)C)c3C(=O)N4)cc12 [Example 16]
Incoming: Could you please order the items by pIC50, going from the lowest number to the highest? Record the ranking as a list of labels in the requested order.
Outgoing: c, b, a

[1] COc1cc(C(=O)N2CCC3(CC2)Cc2cn(C(C)(C)C)nc2C(=O)N3)cc2[nH]ncc12 [Example 66]
[2] CCc1n[nH]c2ccc(C(=O)N3CCC4(CC3)Cc3cnn(C(C)C)c3C(=O)N4)cc12 [Example 15]
Incoming: # argmax over pIC50 for candidates 1 and 2 // caller expects the label of the chosen entry
Outgoing: 1
(1: 8.62, 2: 6.84)

* * *

# MEASURED TARGET: recombinant human ACC1 (rhACC1) (Homo sapiens (Human))
# EXPERIMENT SUMMARY: recombinant hACC1 Transcreener ADP detection FP assay
# EXPERIMENTAL SETUP: 50 μM ATP, 120 min at 25° C.
pIC50: −log10 of the molar value.
MEASURED ATTRIBUTE: pIC50

Here are 5 molecules together with their reported answers.
- MOLECULE: "CC(C)n1ncc2c1C(=O)NC1(CCN(C(=O)c3cnc4cc[nH]c4c3)CC1)C2"
  pIC50: 6.39
- MOLECULE: "COc1cc(C(=O)N2CCC3(CC2)Cc2cn(C(C)(C)C)nc2C(=O)N3)cc2cn[nH]c12"
  pIC50: 7.64
- MOLECULE: "CNc1nc2cc(C(=O)N3CCC4(CC3)Cc3cn(C(C)(C)C)nc3C(=O)N4)ccc2[nH]1"
  pIC50: 7.10
- MOLECULE: "CC(C)(C)Nc1nccc2ccc(C(=O)N3CCC4(CC3)Cc3cn(C(C)(C)C)nc3C(=O)N4)cc12"
  pIC50: 7.11
- MOLECULE: "COc1cccc2cc(C(=O)N3CCC4(CC3)Cc3cn(C(C)(C)C)nc3C(=O)N4)ccc12"
  pIC50: 7.52

[A] CN(C)c1nccc2ccc(C(=O)N3CCC4(CC3)Cc3cn(C(C)(C)C)nc3C(=O)N4)cc12
[B] COc1nccc2cc(C(=O)N3CCC4(CC3)Cc3cn(C(C)(C)C)nc3C(=O)N4)ccc12
Incoming: Between A and B , whose recorded pIC50 is greater? Let me know the label of the one you choose.
Outgoing: A
(A: 7.14, B: 6.61)

* * *

# MEASURED TARGET: recombinant human ACC1 (rhACC1) (Homo sapiens (Human), UniProt Q13085)
# EXPERIMENT SUMMARY: recombinant hACC1 Transcreener ADP detection FP assay
# EXPERIMENTAL SETUP: 50 μM ATP, 120 min at 25° C.
# Protocol: For example direct inhibition of ACC activity, for the compound of Formula (I) was determined using preparations of recombinant human ACC1 (rhACC1) and recombinant human ACC2 (rhACC2). [1] Preparation of rhACC1. […] [2] […] The data was acquired on a Envision Fluorescence reader (PerkinElmer) using a 620 excitation Cy5 FP general dual mirror, 620 excitation Cy5 FP filter, 688 emission (S) and a 688 (P) emission filter.
MEASURED ATTRIBUTE: IC50 (nM)

Worked examples follow.
- MOLECULE: "CC(C)n1ncc2c1C(=O)NC1(CCN(C(=O)c3cnc4cn[nH]c4c3)CC1)C2"
  MEASURED ATTRIBUTE: "IC50"
  MEASUREMENT UNIT: "nM"
  RECORDED NUMBER: 1480
- MOLECULE: "CC(C)n1ncc2c1C(=O)NC1(CCN(C(=O)c3cnc4[nH]cc(Cl)c4c3)CC1)C2"
  MEASURED ATTRIBUTE: "IC50"
  MEASUREMENT UNIT: "nM"
  RECORDED NUMBER: 179
- MOLECULE: "CC(C)n1ncc2c1C(=O)NC1(CCN(C(=O)c3ccc4[nH]ncc4c3)CC1)C2"
  MEASURED ATTRIBUTE: "IC50"
  MEASUREMENT UNIT: "nM"
  RECORDED NUMBER: 227
- MOLECULE: "COc1cccc2cc(C(=O)N3CCC4(CC3)Cc3cn(C(C)(C)C)nc3C(=O)N4)cnc12"
  MEASURED ATTRIBUTE: "IC50"
  MEASUREMENT UNIT: "nM"
  RECORDED NUMBER: 221
- MOLECULE: "COc1ccc2ncc(C(=O)N3CCC4(CC3)Cc3cnn(C(C)C)c3C(=O)N4)cc2c1"
  MEASURED ATTRIBUTE: "IC50"
  MEASUREMENT UNIT: "nM"
  RECORDED NUMBER: 121
- MOLECULE: "CC(C)(C)n1cc2c(n1)C(=O)NC1(CCN(C(=O)c3ccc4cn[nH]c4c3)CC1)C2"
  MEASURED ATTRIBUTE: "IC50"
  MEASUREMENT UNIT: "nM"
  RECORDED NUMBER: 88
- MOLECULE: "CC(C)n1ncc2c1C(=O)NC1(CCN(C(=O)c3cnc4c(Cl)c[nH]c4c3)CC1)C2"
  MEASURED ATTRIBUTE: "IC50"
  MEASUREMENT UNIT: "nM"
  RECORDED NUMBER: 154
- MOLECULE: "CNc1nccc2cc(C(=O)N3CCC4(CC3)Cc3cn(C(C)(C)C)nc3C(=O)N4)ccc12"
  MEASURED ATTRIBUTE: "IC50"
  MEASUREMENT UNIT: "nM"
  RECORDED NUMBER: 240
- MOLECULE: "CCN(C)c1nccc2ccc(C(=O)N3CCC4(CC3)Cc3cn(C(C)(C)C)nc3C(=O)N4)cc12"
  MEASURED ATTRIBUTE: "IC50"
  MEASUREMENT UNIT: "nM"
  RECORDED NUMBER: 332
- MOLECULE: "CNc1ccc2ccc(C(=O)N3CCC4(CC3)Cc3cnn(C(C)C)c3C(=O)N4)cc2n1"
  MEASURED ATTRIBUTE: "IC50"
  MEASUREMENT UNIT: "nM"
  RECORDED NUMBER: 33

[P] CC(C)(C)n1cc2c(n1)C(=O)NC1(CCN(C(=O)c3ccc4ccc(Cl)nc4c3)CC1)C2
[Q] COCCNc1nccc2ccc(C(=O)N3CCC4(CC3)Cc3cn(C(C)(C)C)nc3C(=O)N4)cc12
[R] Cc1cc(C(=O)N2CCC3(CC2)Cc2cn(C(C)(C)C)nc2C(=O)N3)cc2cn[nH]c12
Incoming: Order these by IC50, descending, and give the full ranking. Could you list the labels in the order requested?
Outgoing: P, Q, R

[A] CC(C)n1ncc2c1C(=O)NC1(CCN(C(=O)c3cc4ncccc4[nH]3)CC1)C2
[B] CC(F)(F)CNc1ccc2ccc(C(=O)N3CCC4(CC3)Cc3cn(C(C)(C)C)nc3C(=O)N4)cc2n1
[C] COc1cc(C(=O)N2CCC3(CC2)Cc2cn(C(C)(C)C)nc2C(=O)N3)nc2c(OC)cccc12
[D] COc1cc(C(=O)N2CCC3(CC2)Cc2cnn(C(C)C)c2C(=O)N3)nc2c(OC)cccc12
[E] CC(C)(C)n1cc2c(n1)C(=O)NC1(CCN(C(=O)c3ccc4ncccc4c3)CC1)C2
Incoming: Would you mind ranking these compounds by ascending IC50? Enter labels, ranked according to the request.
Outgoing: B, C, D, E, A
(B: 9 nM, C: 15 nM, D: 72 nM, E: 160 nM, A: 657 nM)

[I] CC(C)n1ncc2c1C(=O)NC1(CCN(C(=O)c3ccc4cccnc4c3)CC1)C2
[II] CC(C)(C)n1cc2c(n1)C(=O)NC1(CCN(C(=O)c3ccc4ccc(NCC(F)(F)F)nc4c3)CC1)C2
Incoming: Hi there! Just curious which has the higher IC50 between I and II . Label of pick, please.
Outgoing: I

[P] CC(C)(C)n1cc2c(n1)C(=O)NC1(CCN(C(=O)c3ccc4ccnc(N)c4c3)CC1)C2
[Q] Cc1cc(C(=O)N2CCC3(CC2)Cc2cn(C(C)(C)C)nc2C(=O)N3)cc2c(Cl)n[nH]c12
[R] CC(C)(C)n1cc2c(n1)C(=O)NC1(CCN(C(=O)c3ccc4ccc(NC5CCC5)nc4c3)CC1)C2
Incoming: List by increasing IC50. Put the labels in the requested order and list them out.
Outgoing: R, Q, P

[P] CCc1cc(C(=O)N2CCC3(CC2)Cc2cnn(C(C)C)c2C(=O)N3)cc2cn[nH]c12
[Q] CC(C)(C)n1cc2c(n1)C(=O)NC1(CCN(C(=O)c3cnc4[nH]cc(Cl)c4c3)CC1)C2
[R] COc1cc(C(=O)N2CCC3(CC2)Cc2cn(C(C)(C)C)nc2C(=O)N3)cc2[nH]ncc12
Incoming: # rank_down: sort by IC50, max first // format: requested-order list of labels
Outgoing: P, Q, R
(P: 131 nM, Q: 62 nM, R: 17 nM)

[P] CC(C)Nc1nccc2ccc(C(=O)N3CCC4(CC3)Cc3cn(C(C)(C)C)nc3C(=O)N4)cc12
[Q] CC(C)n1ncc2c1C(=O)NC1(CCN(C(=O)c3cnc4[nH]ccc4c3)CC1)C2
Incoming: For P and Q , which recorded IC50 is lower? When you have decided, please share the label of that item.
Outgoing: P
